# Test System: Bcl-2 protein (Recombinant Human Bcl-2 Protein) (Homo sapiens, UniProt P10415)
# Construct: purchased Novus NBP2-34889
# Sequence (P10415 whole entry): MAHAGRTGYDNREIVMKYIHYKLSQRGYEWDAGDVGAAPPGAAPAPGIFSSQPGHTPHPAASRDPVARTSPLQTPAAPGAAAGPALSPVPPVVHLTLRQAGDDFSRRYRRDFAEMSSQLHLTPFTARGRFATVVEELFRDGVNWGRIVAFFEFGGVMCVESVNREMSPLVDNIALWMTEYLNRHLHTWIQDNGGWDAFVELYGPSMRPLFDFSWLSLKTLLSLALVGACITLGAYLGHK
# Experimental Details: Binding evaluation of mixture library compounds to Bcl-2 using AS-MS (affinity selection mass spectrometry)
# Assay Conditions: AS-MS on the mixture of 1200 library compounds; ASMS Ratio(%)=(A−C)/B×100; replicate n = 1
Give ASMS ratio (%) n = 1 for every item shown.
One number for each entry, in %.

Worked set:
Any idea what ASMS ratio (%) n = 1 was measured for CCOc1cccc(-c2ccc(CN3CCN(c4ccc(C(=O)N(CC)CC)cc4)CC3)cc2F)c1 ?
−9.6

Same for CCOc1cccc(-c2cc(C(=O)N3CCN(c4ccc(C(=O)N(CC)CC)nn4)CC3)cc(C(F)(F)F)c2)c1
−0.3

Same for CCOc1cccc(-c2ccc(CN3CCN(c4ccc(C(=O)N(C)CC56CC7CC(CC(C7)C5)C6)cc4)CC3)cc2F)c1
21.3

Now for the molecule whose ASMS ratio (%) n = 1 we want.
Any idea what ASMS ratio (%) n = 1 was measured for CCOc1cccc(C#Cc2ccccc2C(=O)N2CCN(c3ccc(C(=O)N(C)CC45CC6CC(CC(C6)C4)C5)nn3)CC2)c1 ?
9.1

* * *

# Test System: Bcl-2 protein (Recombinant Human Bcl-2 Protein) (Homo sapiens, UniProt P10415)
# Construct: purchased Novus NBP2-34889
# Experimental Details: Binding evaluation of mixture library compounds to Bcl-2 using AS-MS (affinity selection mass spectrometry)
# Assay Conditions: AS-MS, mixture of 1200 compounds, Bcl-2; ASMS Ratio(%)=(A−C)/B×100; replicate n = 1
Give ASMS ratio (%) n = 1 for every item shown.
Answers are plain numbers, in %.

Worked set:
Any idea what ASMS ratio (%) n = 1 was measured for CCOc1cncc(-c2cc(CN3CCN(c4ccc(C(=O)NCC(F)(F)F)nn4)CC3)cc(OC(C)C)c2)c1 ?
0.0

Same for CCOc1cncc(-c2cc(CN3CCN(c4ccc(C(=O)NCC56CC7CC(CC(C7)C5)C6)nn4)CC3)cc(OC(C)C)c2)c1
2.1

Same for CCOc1cccc(-c2csc(CN3CCN(c4ccc(C(=O)NCC(F)(F)F)cc4)CC3)c2)c1
5.1

Same for CCOc1cccc(C#Cc2cncc(C(=O)N3CCN(c4ccc(C(=O)NCC56CC7CC(CC(C7)C5)C6)cc4)CC3)c2)c1
6.9

Same for CCOc1cncc(-c2cc(CN3CCN(c4ccc(C(=O)NCC(F)(F)F)cc4)CC3)cc(C(F)(F)F)c2)c1
1.2

Below is a list of compounds. For each, state its recorded ASMS ratio (%) n = 1.
1. CCOc1cccc(-c2cc(C(=O)N3CCN(c4ccc(C(=O)NCC56CC7CC(CC(C7)C5)C6)nn4)CC3)cc(C(F)(F)F)c2)c1
2. CCOc1cccc(-c2ccc(C(C)N3CCN(c4ccc(C(=O)NCC(F)(F)F)cc4)CC3)cc2)c1 (stereo not shown)

1: 5.4; 2: −2.1

* * *

# Test System: Bcl-2 protein (Recombinant Human Bcl-2 Protein) (Homo sapiens)
# Construct: purchased Novus NBP2-34889
# Experimental Details: Binding evaluation of mixture library compounds to Bcl-2 using AS-MS (affinity selection mass spectrometry)
# Assay Conditions: n = 1
Give ASMS ratio (%) for every item shown.
Give bare numbers, in %.

Worked set:
Any idea what ASMS ratio (%) was measured for CCOc1cncc(-c2ccc(CN3CCN(c4ccc(C(=O)NS(=O)(=O)C(C)(C)C)nn4)CC3)cc2F)c1 ?
1.1

Same for CCOc1cccc(-c2ccccc2CCC(=O)N2CCN(c3ccc(C(=O)NS(=O)(=O)C(C)(C)C)cc3)CC2)c1
0.0

Same for CCOc1cncc(-c2ccc(CN3CCN(c4ccc(C(=O)NS(C)(=O)=O)cc4)CC3)c3ccccc23)c1
0.0

Now for the compound whose ASMS ratio (%) we want.
Any idea what ASMS ratio (%) was measured for CCOc1cncc(-c2cc(CN3CCN(c4ccc(C(=O)NS(=O)(=O)CCC(F)(F)F)nn4)CC3)cc(OC(C)C)c2)c1 ?
0.0
